- System Name: SETD2(1434-1711) (Homo sapiens, UniProt Q9BYW2)
- Construct: SETD2 (1434-1711) Assay; catalogue N/A
- Sequence (Q9BYW2 1434-1711): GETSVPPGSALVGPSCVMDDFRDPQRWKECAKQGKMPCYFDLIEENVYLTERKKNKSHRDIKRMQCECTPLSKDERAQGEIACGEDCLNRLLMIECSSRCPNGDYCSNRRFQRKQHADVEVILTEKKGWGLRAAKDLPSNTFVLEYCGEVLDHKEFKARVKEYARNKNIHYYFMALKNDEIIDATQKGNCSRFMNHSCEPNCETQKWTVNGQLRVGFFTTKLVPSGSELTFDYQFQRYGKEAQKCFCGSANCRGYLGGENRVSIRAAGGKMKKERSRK
- Assay Remarks: SETD2 (1434-1711) assay
- Assay type: biochemical
- Study Conditions: read-out: SETD2 (1434-1711)
// returns not satisfied unless IC50 is strictly below 0.1 µM, in which case satisfied

>>> df
                                   compound                               system_name          class
0  COC(=O)CC(NC(=O)c1cc2cccc(C)c2[nH]1)c1ccc(Br)cc1 (centres unmarked) [compound 778]  SETD2(1434-1711) (Homo sapiens, UniProt Q9BYW2)  not satisfied
1  Cc1ccc(F)c2cc(C(=O)NC3CCCC(N4CCC(N(C)C(=O)C5COC5)C4)C3)[nH]c12 (centres unmarked) [compound 947]  SETD2(1434-1711) (Homo sapiens, UniProt Q9BYW2)  not satisfied
2  Cc1cccc2cc(C(=O)N3CCCC(N)C3)[nH]c12 (centres unmarked) [compound 794]  SETD2(1434-1711) (Homo sapiens, UniProt Q9BYW2)  not satisfied
3  COC(=O)N1CCC2(CC1)CN(c1cccc(NC(=O)c3cc4c(F)ccc(C)c4[nH]3)c1)C2 [compound 112]  SETD2(1434-1711) (Homo sapiens, UniProt Q9BYW2)      satisfied
4  Cc1cccc2cc(C(=O)NC(c3cccc(CC(N)=O)n3)C3CC3)[nH]c12 (centres unmarked) [compound 667]  SETD2(1434-1711) (Homo sapiens, UniProt Q9BYW2)  not satisfied
5  Cc1ccc(F)c2cc(C(=O)NC3CCCC(N4CCN(C(=O)C(C)C)C(C(F)(F)F)C4)C3)[nH]c12 (centres unmarked) [compound 1175]  SETD2(1434-1711) (Homo sapiens, UniProt Q9BYW2)  not satisfied
